// data source = patent US20120207760A1

Target: recombinant homotrimeric HA, A/Vietnam/1203/04 H5N1 (Influenza A virus A/Vietnam/1203/04 (H5N1))
Assay: trimeric HA microarray, transfection set 2
Conditions: remark: other sources report otherwise
readout-label: Trimeric HA Binding RLU (RLU)
Report the figure in RLU without appending any unit label.

binder="TCN-522 (3212_I12) (antibody, V domains shown) VH: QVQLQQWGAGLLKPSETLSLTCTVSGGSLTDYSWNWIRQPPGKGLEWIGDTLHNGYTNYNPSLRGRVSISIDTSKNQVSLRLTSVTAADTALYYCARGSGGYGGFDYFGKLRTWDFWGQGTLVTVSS VL: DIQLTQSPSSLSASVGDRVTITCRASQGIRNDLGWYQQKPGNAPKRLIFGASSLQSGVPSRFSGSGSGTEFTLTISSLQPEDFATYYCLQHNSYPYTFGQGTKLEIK" readout_label="Trimeric HA Binding RLU" measurement_units=RLU endpoint_value=48200

We next turn to a different binder, shown below.
Query: Entry TCN-523 (5248_A17) (antibody, V domains shown) VH: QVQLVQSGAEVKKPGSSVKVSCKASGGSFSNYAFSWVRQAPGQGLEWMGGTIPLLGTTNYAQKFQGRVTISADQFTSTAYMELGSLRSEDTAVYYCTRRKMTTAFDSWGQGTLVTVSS VL: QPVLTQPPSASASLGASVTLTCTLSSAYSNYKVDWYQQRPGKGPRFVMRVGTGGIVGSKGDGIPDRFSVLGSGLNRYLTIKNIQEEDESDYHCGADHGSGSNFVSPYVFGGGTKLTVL : reported Trimeric HA Binding RLU = ?
Response: 26200
